Hey, just so you know, these numbers are from ChEMBL document CHEMBL3301361.

# assay-remarks: physchem
# measurement-conditions: octan-1-ol/water, pH 7.4, LogD7.4
measured-quantity: logD
Field format: numeric only.

{"columns": ["molecule", "logD"],
 "data": [
  ["CSc1ccc(OCc2ccccc2)c(C(=O)Nc2ccc(C(=O)O)cn2)c1", 1.6],
  ["O=C(O)CSCC(=O)Nc1nc(-c2ccc(F)cc2)cs1", -0.2],
  ["Cc1ccc2c(c1)c(-c1ccnc3cc(Cl)ccc13)c(C)n2CC(=O)O", 1.59],
  ["Cc1nnc(N)s1", -0.4],
  ["Cc1cc(C)cc(-c2[nH]c3ccc(C(C)(C)C(=O)N4C5CCC4CC5)cc3c2CCNCCCCc2ccncc2)c1", 4.3],
  ["CC(C)[C@@H](CO)NS(=O)(=O)c1ccc(Cl)s1", 2.3],
  ["Nc1nc(Nc2ccc(F)c(Cl)c2)c2nc[nH]c2n1", 2.75],
  ["O=C(O)COc1ccc(Cl)cc1CN1CCN(S(=O)(=O)c2ccc(F)cc2)CC1", 0.99],
  ["C[C@@](O)(C(=O)Nc1ccc(C(=O)N2CCCCC2)cc1Cl)C(F)(F)F", 2.62],
  ["COc1cnc(-c2ccccn2)nc1Oc1ccc(F)cc1F", 3.1]
]}

Dear colleague, please send me the reported logD for c1ccc(Nc2ccnc3ccccc23)cc1 when you can.
2.78

Tell me measured logD for N#Cc1cc(F)c(Cl)cc1O[C@H](CCN)c1ccccc1 please.
0.77

Give the reported logD for this molecule. COc1cc2ncc(C(N)=O)c(Nc3ccc(F)cc3F)c2cc1OC
2.95

# return recorded logD for entry CC(C)C(NC(=O)Cn1c(-c2ccccc2)ccc(NC(=O)OCc2ccncc2)c1=O)C(=O)C(F)(F)F (stereo unspecified)
2.41

Specify logD for C[C@H]1CN(Cc2cc(Cl)ccc2OC(C)(C)C(=O)O)CCN1S(=O)(=O)c1ccccc1 and stop.
0.54

Tell me its logD given CCCC(=O)NCc1cncc(-c2ccc(F)cc2OC)c1 as the entry.
2.9

Using the record for Cc1ncc(C(N)=O)nc1-c1ccc([C@H]2CC[C@H](C(=O)O)CC2)cc1 , state its measured logD.
0.22
